- System: MCF7
- assayProcedure: Growth inhibition of human MCF7 cells after 72 hrs by MTT assay
- Format: functional, cell-based
- condition: MCF7, 72 h
pIC50: −log10 of the molar value.
measurementName: pIC50

1. COc1ccc(CSCCN(CCSCc2ccc(OC)cc2)CC(=O)Nc2c[nH]c(=O)[nH]c2=O)cc1 = < 4.00
2. O=c1[nH]c(=O)n(COC(CO)CO)cc1I [IODACYCLUR] = < 4.00
3. Cc1ccc(S(=O)(=O)Nc2cc[nH]c(=O)n2)cc1 = 4.57
4. CC(C)(C)OC(=O)NCCNCC(=O)Nc1c[nH]c(=O)[nH]c1=O = < 4.00
5. N[C@H](CSCC(=O)Nc1c[nH]c(=O)[nH]c1=O)C(=O)O = < 4.00
6. O=c1nc(NO)cc[nH]1 [N4-hydroxycytosine] = < 4.00
7. Cn1ccc(N)nc1=O = < 4.00
8. Cc1c(I)c(=O)[nH]c(=O)n1COC(CO)CO [IODMETACYCLUR] = < 4.00
9. O=C(CCl)Nc1cn(COC(CO)CO)c(=O)[nH]c1=O = 4.49
10. Cn1cc(CO)c(N)nc1=O = < 4.00
11. O=c1[nH]c(=O)n(COC(CO)CO)cc1O = < 4.00
12. Cc1cc(=O)[nH]c(=O)n1COC(CO)CO = < 4.00
